Numbers sourced from patent EP4656642A1.

subjectOfTest: ERα (Homo sapiens, UniProt P03372)
Sequence (P03372 whole entry): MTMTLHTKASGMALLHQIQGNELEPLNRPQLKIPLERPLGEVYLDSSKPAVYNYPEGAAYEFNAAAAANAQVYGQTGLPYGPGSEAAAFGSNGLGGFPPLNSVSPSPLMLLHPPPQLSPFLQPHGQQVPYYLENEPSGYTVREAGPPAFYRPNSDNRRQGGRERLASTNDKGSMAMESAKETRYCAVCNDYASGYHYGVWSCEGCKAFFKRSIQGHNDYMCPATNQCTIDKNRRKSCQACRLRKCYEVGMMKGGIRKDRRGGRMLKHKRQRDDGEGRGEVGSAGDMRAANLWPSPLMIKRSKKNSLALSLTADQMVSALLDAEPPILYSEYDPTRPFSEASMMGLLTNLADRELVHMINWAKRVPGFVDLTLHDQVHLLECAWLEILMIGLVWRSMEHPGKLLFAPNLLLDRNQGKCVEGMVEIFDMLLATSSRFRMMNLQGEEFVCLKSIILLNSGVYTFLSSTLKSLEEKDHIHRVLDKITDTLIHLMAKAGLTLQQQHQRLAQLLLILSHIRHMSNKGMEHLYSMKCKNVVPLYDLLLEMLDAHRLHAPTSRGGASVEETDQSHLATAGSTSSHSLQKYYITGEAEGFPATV
test: Degradation of ERα in MCF-7 cells (immunoblotting, 4 h)
Assay type: cell-based
assayConditions: 10nM compound
property: Degradation rate (%) of ERα in MCF-7 cells
Numeric answer only, unit % assumed.

{"compound": "O=C1CCC(N2Cc3c(ccc4c3OCC43CCN(C(=O)c4ccc(CN5CCN(c6ccc([C@@H]7c8ccc(O)cc8CC[C@@H]7c7ccccc7)cc6)CC5)nc4)CC3)C2=O)C(=O)N1 (stereo partly drawn)", "unitSpec": "%", "result": 33}
{"compound": "O=C1CCC(N2Cc3c(ccc4c3OCC43CCN(CC(=O)N4CCN(c5ccc([C@@H]6c7ccc(O)cc7CC[C@@H]6c6ccccc6)cc5)CC4)CC3)C2=O)C(=O)N1 (stereo partly drawn)", "unitSpec": "%", "result": 58}

Consider the additional compound presented here.
stdin: Recorded Degradation rate (%) of ERα in MCF-7 cells of C[C@H]1CN(c2ccc([C@@H]3c4ccc(O)cc4CC[C@@H]3c3ccccc3)cc2)CCN1C[C@H]1CC[C@H](C(=O)N2CCC3(CC2)COc2c3ccc3c2CN(C2CCC(=O)NC2=O)C3=O)CC1 (stereo partly drawn) , please.
stdout: 55
